# experiment.summary: Drug uptake into Sprague-Dawley rat hepatocytes by silicone oil layer method
# Format: ADME, cell-based, Hepatocyte
recorded.endpoint: Km (µM)
Your answer is read as µM, so omit the unit and give the number.

Name the recorded Km for C=C[C@@H]1C[C@]1(NC(=O)[C@@H]1C[C@@H](Oc2nccc3cc(OC)ccc23)CN1C(=O)[C@@H](NC(=O)OC(C)(C)C)C(C)(C)C)C(=O)NS(=O)(=O)C1CC1 .
1.4

###

# experiment.summary: Cytotoxicity against human HuH7 cells
# Type: cell-based
# experimental.conditions: Huh-7 cells
recorded.endpoint: CC50 (µM)
Record the value in µM, omitting the unit from your answer.

What does the record list as CC50 for C=C[C@@H]1C[C@]1(NC(=O)[C@@H]1C[C@@H](Oc2ncc(C)c3ccccc23)CN1C(=O)[C@@H](NC(=O)OC(C)(C)C)C(C)(C)C)C(=O)NS(=O)(=O)C1CC1 ?
71

What do we get for C=C[C@@H]1C[C@]1(NC(=O)[C@@H]1C[C@@H](Oc2nccc3cc(C)ccc23)CN1C(=O)[C@@H](NC(=O)OC(C)(C)C)C(C)(C)C)C(=O)NS(=O)(=O)C1CC1 ?
92

C=C[C@@H]1C[C@]1(NC(=O)[C@@H]1C[C@@H](Oc2nccc3c(Cl)cccc23)CN1C(=O)[C@@H](NC(=O)OC(C)(C)C)C(C)(C)C)C(=O)NS(=O)(=O)C1CC1 , same question.
38

Reference for the values: ChEMBL document CHEMBL3124900
